# TARGET_UNDER_TEST: human H4 receptor (Homo sapiens, UniProt Q9H3N8)
# Construct: expressed in transfected cells
# Sequence (Q9H3N8 whole entry): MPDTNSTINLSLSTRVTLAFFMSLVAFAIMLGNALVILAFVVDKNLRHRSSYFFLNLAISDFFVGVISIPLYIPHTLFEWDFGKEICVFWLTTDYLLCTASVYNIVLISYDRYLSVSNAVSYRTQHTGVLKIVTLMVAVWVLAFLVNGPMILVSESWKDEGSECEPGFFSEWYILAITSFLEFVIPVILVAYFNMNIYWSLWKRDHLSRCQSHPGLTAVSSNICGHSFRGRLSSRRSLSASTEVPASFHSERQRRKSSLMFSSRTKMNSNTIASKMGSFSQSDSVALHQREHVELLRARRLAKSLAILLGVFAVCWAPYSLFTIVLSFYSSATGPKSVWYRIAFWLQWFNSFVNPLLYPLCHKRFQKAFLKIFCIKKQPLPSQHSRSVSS
# RUN_DESCRIPTION: [3H]Histamine binding on membranes of CHO cells stably expressing human H4 receptor
# Description: CHO cells stably expressing human H4 receptor were grown until sub-confluence and centrifuged at 300 g 15 minutes at 4° C. Pellets were resuspended in buffer I Tris-HCl 50 mM, MgCl2 10 mM, NaCl 140 mM, pH=7.4 supplemented by a 1/50 dilution of a mix of protease inhibitors. […] Protein content is measured by the Bradford method. […] The filter-bound radioactivity was measured in a liquid scintillation counter Microbeta TRILUX® with 50 μl of scintillation fluid. […]
Please go through the items and note down their Ki or IC50 activity class.

These solved cases illustrate the format of a correct answer.
CN1CCC(OC(c2cccc(SCCN)c2)c2nc3cc(F)ccc3[nH]2)CC1 (stereo not drawn): < 300 nM
CN1CCC(OC(c2cccc(SCc3ccccc3)c2)c2nc3ccccc3[nH]2)CC1 (stereo not drawn): < 300 nM
CN1CCC(OC(c2cccc(OCc3cccc(N)c3)c2)c2nc3ccccc3s2)CC1 (stereo not drawn): < 30 nM
CN1CCC(OC(c2cccc(CCCCO)c2)c2nc3ccccc3s2)CC1 (stereo not drawn): < 1000 nM
CN1CCC(OC(c2cccc(N3CCCC3CN)c2)c2nc3ccccc3s2)CC1 (stereo not drawn): < 30 nM

Continue with the compound presented below.
Incoming: Request: Ki or IC50 activity class, test system human H4 receptor (Homo sapiens, UniProt Q9H3N8), entry CN1CCC(OC(c2nc3ccccc3[nH]2)c2cc(SCCF)ccc2O)CC1 (stereo not drawn)
Outgoing: < 30 nM

Origin of the recorded values: patent US8802664B2
